target: Neutrophil elastase (Mus musculus); assay: Inhibition of neutrophil elastase activation in beta-estradiol differentiated mouse EcoM-G cells after 24 hrs
Sequence (Q3UP87 whole entry): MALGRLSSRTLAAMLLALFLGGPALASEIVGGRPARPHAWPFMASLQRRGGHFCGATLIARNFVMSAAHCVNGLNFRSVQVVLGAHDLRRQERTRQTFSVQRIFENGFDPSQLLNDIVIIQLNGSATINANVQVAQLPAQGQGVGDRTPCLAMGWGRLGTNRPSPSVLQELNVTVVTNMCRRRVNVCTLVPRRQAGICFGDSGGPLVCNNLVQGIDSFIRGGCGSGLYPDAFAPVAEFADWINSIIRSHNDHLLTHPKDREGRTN
// classify: if (IC50 < 0.2 µM) yes else no

| compound | group.label |
| --- | --- |
| N#C[C@@]1(NC(=O)C(N)Cc2sccc2F)C[C@@H]1c1ccccc1 (some centres undefined) | yes |
| N#C[C@]1(NC(=O)C(N)Cc2cncs2)C[C@H]1c1ccccc1 (some centres undefined) | no |
| N#C[C@]1(NC(=O)[C@@H](N)Cc2ccccc2F)C[C@H]1c1ccccc1 | no |
| N#C[C@]1(NC(=O)C(N)Cc2cccs2)C[C@H]1c1ccccc1.O=C(O)C(F)(F)F (single isomer, unassigned) | no |
| CS(=O)(=O)C[C@H](N[C@@H](c1ccc(Br)cc1)C(F)(F)F)C(=O)NC1(C#N)CC1 | no |
| CCOC(=O)[C@H]1O[C@@H]1C(=O)N[C@@H](CC(C)C)C(=O)NCCC(C)C | no |
| N#C[C@@]1(NC(=O)[C@@H](N)Cc2cccs2)C[C@@H]1c1ccccc1.O=C(O)C(F)(F)F | yes |
| CC(C)C[C@@H](NC(=O)N1CCOCC1)C(=O)N[C@@H](/C=C/S(=O)(=O)c1ccccc1)CCc1ccccc1 | no |
| Cc1cc(C)cc(CC(NC(=O)C(c2ccccc2)c2ccccc2)C(=O)NCC#N)c1 (centres undefined) | no |

====

molecular target: Procathepsin L (Homo sapiens); experiment: Inhibition of human recombinant cathepsin L after 10 mins
Sequence (P07711 whole entry): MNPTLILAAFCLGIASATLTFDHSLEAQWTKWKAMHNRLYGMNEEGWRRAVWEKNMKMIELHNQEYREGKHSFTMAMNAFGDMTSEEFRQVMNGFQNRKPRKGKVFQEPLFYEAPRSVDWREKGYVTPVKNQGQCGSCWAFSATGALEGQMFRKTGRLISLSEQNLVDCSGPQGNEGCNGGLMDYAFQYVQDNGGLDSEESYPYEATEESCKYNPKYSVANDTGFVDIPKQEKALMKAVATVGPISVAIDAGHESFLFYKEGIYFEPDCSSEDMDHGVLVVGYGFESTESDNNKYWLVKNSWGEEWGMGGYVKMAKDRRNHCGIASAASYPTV
// classify: if (IC50 < 600 nM) true (1) else false (0)

| compound | group.label |
| --- | --- |
| N#[N+][CH-]C(=O)[C@H](Cc1ccccc1)NC(=O)CN | false (0) |
| CS(=O)(=O)C[C@H](N[C@@H](c1ccc(Br)cc1)C(F)(F)F)C(=O)NC1(C#N)CC1 | true (1) |
| CC(C)C[C@H](NC(=O)[C@H]1O[C@@H]1C(=O)O)C(=O)NCCCCN=C(N)N | true (1) |
| N#C[C@@]1(NC(=O)C(N)Cc2sccc2F)C[C@@H]1c1ccccc1 (stereo partly specified) | false (0) |
| N#C[C@]1(NC(=O)[C@@H](N)Cc2ccccc2F)C[C@H]1c1ccccc1 | true (1) |
| Cc1cc(C)cc(CC(NC(=O)C(c2ccccc2)c2ccccc2)C(=O)NCC#N)c1 (stereo unspecified) | true (1) |

====

biological target: Neutrophil elastase (Mus musculus); experiment: Inhibition of neutrophil elastase in mouse EcoM-G cells
Non-standard residues stand in square brackets, D forms with d. Residues, ends and D or L forms follow the SMILES beside them. *: point of attachment. Phe(4-I) = N[C@@H](Cc1ccc(I)cc1)C(=O)O; CHN2 = [N-]=[N+]=C*

| compound | target.under.test | IC50 |
| --- | --- | --- |
| N#C[C@@]1(NC(=O)C(N)Cc2sccc2F)C[C@@H]1c1ccccc1 (some centres not stated) | Neutrophil elastase (Mus musculus) | > 10 µM |
| [N-]=[N+]=CC(=O)[C@H](Cc1ccc(I)cc1)NC(=O)CN (H-Gly-[Phe(4-I)]-CHN2) | Neutrophil elastase (Mus musculus) | > 50 µM |

====

Listed next: entries and their corresponding pIC50.
target: Dipeptidyl peptidase 1 (Homo sapiens, UniProt P53634); experiment: Inhibition of human recombinant cathepsin C after 10 mins
Sequence (P53634 25-134 limits assumed): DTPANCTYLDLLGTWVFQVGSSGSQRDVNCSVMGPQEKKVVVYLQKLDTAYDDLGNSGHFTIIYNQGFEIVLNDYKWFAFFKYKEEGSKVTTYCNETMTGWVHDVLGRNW
Sequence (P53634 231-394 limits assumed): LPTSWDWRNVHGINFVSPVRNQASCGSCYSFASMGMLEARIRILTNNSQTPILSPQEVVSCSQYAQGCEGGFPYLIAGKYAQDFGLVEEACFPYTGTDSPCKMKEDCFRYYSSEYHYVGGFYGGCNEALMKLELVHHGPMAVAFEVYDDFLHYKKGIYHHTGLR
Sequence (P53634 395-463 limits assumed): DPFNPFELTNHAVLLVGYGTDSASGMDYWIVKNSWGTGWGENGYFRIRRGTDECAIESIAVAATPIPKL
pIC50: −log10 of the molar value. Non-standard residues stand in square brackets, D forms with d. Residues, ends and D or L forms follow the SMILES beside them. *: point of attachment. Phe(4-I) = N[C@@H](Cc1ccc(I)cc1)C(=O)O; CHN2 = [N-]=[N+]=C*

| molecule | target.under.test | reported.relation | pIC50 |
| --- | --- | --- | --- |
| N#C[C@]1(NC(=O)[C@@H](N)Cc2ccccc2F)C[C@H]1c1ccccc1 | Dipeptidyl peptidase 1 (Homo sapiens, UniProt P53634) | < | 6.66 |
| CC(C)C[C@H](NC(=O)[C@H]1O[C@@H]1C(=O)O)C(=O)NCCCCN=C(N)N | Dipeptidyl peptidase 1 (Homo sapiens, UniProt P53634) | = | 6.11 |
| CC(C)C[C@@H](NC(=O)N1CCOCC1)C(=O)N[C@@H](/C=C/S(=O)(=O)c1ccccc1)CCc1ccccc1 | Dipeptidyl peptidase 1 (Homo sapiens, UniProt P53634) | < | 5.00 |
| N#[N+][CH-]C(=O)[C@H](Cc1ccccc1)NC(=O)CN | Dipeptidyl peptidase 1 (Homo sapiens, UniProt P53634) | = | 7.29 |
| N#C[C@]1(NC(=O)C(N)Cc2cccs2)C[C@H]1c1ccccc1.O=C(O)C(F)(F)F (single isomer, unassigned) | Dipeptidyl peptidase 1 (Homo sapiens, UniProt P53634) | < | 4.52 |
| [N-]=[N+]=CC(=O)[C@H](Cc1ccc(I)cc1)NC(=O)CN (H-Gly-[Phe(4-I)]-CHN2) | Dipeptidyl peptidase 1 (Homo sapiens, UniProt P53634) | = | 9.00 |
| N#C[C@]1(NC(=O)C(N)Cc2cncs2)C[C@H]1c1ccccc1 (stereo not given in full) | Dipeptidyl peptidase 1 (Homo sapiens, UniProt P53634) | = | 6.10 |
| CS(=O)(=O)C[C@H](N[C@@H](c1ccc(Br)cc1)C(F)(F)F)C(=O)NC1(C#N)CC1 | Dipeptidyl peptidase 1 (Homo sapiens, UniProt P53634) | < | 5.00 |
| N#C[C@@]1(NC(=O)[C@@H](N)Cc2cccs2)C[C@@H]1c1ccccc1.O=C(O)C(F)(F)F | Dipeptidyl peptidase 1 (Homo sapiens, UniProt P53634) | = | 7.85 |
| CCC[C@H](NC(=O)C(CC(C)C)NC(=O)c1ccc(-c2ccc(I)cc2)cc1)C(=O)[CH-][N+]#N (stereo not given in full) | Dipeptidyl peptidase 1 (Homo sapiens, UniProt P53634) | = | 6.35 |
